Origin of measurements: BigSolDB 2.1

Conditions: in 1,4-dioxane, 298.15 K
READOUT TYPE: solubility (mole fraction)
Answer with a bare number; do not write a unit.

Annotate the molecule Nc1cc([N+](=O)[O-])ccc1Cl with its measured solubility (mole fraction).
0.13

###

Conditions: in n-butanol, 273.15 K
READOUT TYPE: solubility (mole fraction)
Write the number on its own, no unit after it.

Supply measured solubility (mole fraction) of Nc1cc([N+](=O)[O-])ccc1Cl in your reply.
0.0055

###

Conditions: in ethyl acetate, 278.15 K
READOUT TYPE: solubility (mole fraction)

Assign solubility (mole fraction) to the following record: Nc1cc([N+](=O)[O-])ccc1Cl
0.0836

###

Details: in acetone, 288.15 K
READOUT TYPE: solubility (mole fraction)
// keep it numeric: no unit symbol after the value

Recall and state the measured solubility (mole fraction) for Nc1cc([N+](=O)[O-])ccc1Cl .
0.133

###

Conditions: in acetonitrile, 283.15 K
READOUT TYPE: solubility (mole fraction)
The answer should be a number; do not append a unit.

Input Nc1cc([N+](=O)[O-])ccc1Cl , output reported solubility (mole fraction).
0.0342

###

Conditions: in isopropanol, 273.15 K
READOUT TYPE: solubility (mole fraction)

For the molecule Nc1cc([N+](=O)[O-])ccc1Cl , report solubility (mole fraction).
0.0047

###

Conditions: in ethyl acetate, 283.15 K
READOUT TYPE: solubility (mole fraction)
Lab note: jot the number down without any unit.

Provide only the value of recorded solubility (mole fraction) for Nc1cc([N+](=O)[O-])ccc1Cl
0.0915

###

Conditions: in n-butanol, 313.15 K
READOUT TYPE: solubility (mole fraction)
Returns: the value as a bare number; no unit string appended.

Give the reported solubility (mole fraction) for this compound. Nc1cc([N+](=O)[O-])ccc1Cl
0.0252

###

Settings: in NMP, 288.15 K
READOUT TYPE: solubility (mole fraction)
API doc: respond with a numeric literal and nothing else, no unit.

Fill in solubility (mole fraction) for record Nc1cc([N+](=O)[O-])ccc1Cl
0.173

###

Details: in 2-butanone, 288.15 K
READOUT TYPE: solubility (mole fraction)

Look up solubility (mole fraction) of Nc1cc([N+](=O)[O-])ccc1Cl and report it.
0.119

###

Conditions: in ethyl acetate, 303.15 K
READOUT TYPE: solubility (mole fraction)

Please supply the value of reported solubility (mole fraction) for the item Nc1cc([N+](=O)[O-])ccc1Cl
0.126

###

Conditions: in n-propanol, 278.15 K
READOUT TYPE: solubility (mole fraction)
Simply state the number, no unit and no words.

Could you please provide reported solubility (mole fraction) for Nc1cc([N+](=O)[O-])ccc1Cl ? Thanks!
0.0094

###

Conditions: in methanol, 288.15 K
READOUT TYPE: solubility (mole fraction)
Write the number on its own, no unit after it.

Please supply the value of reported solubility (mole fraction) for the item Nc1cc([N+](=O)[O-])ccc1Cl
0.0118

###

Settings: in NMP, 308.15 K
READOUT TYPE: solubility (mole fraction)
The answer should be written as a number, with no unit following it.

Given the compound Nc1cc([N+](=O)[O-])ccc1Cl , write its reported solubility (mole fraction).
0.201

###

Conditions: in ethanol, 283.15 K
READOUT TYPE: solubility (mole fraction)
Answer using only a numeral; do not append any unit.

Find the measured solubility (mole fraction) of Nc1cc([N+](=O)[O-])ccc1Cl and report it.
0.0129
